Assay: chemical genetic growth profiling, strain panel (AID 1159580);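 also: tested at 20 µM; growth read once vehicle control cultures reached saturation at 30 °C; 1 = growth at the plate median or of vehicle wells; lower values mean less growth of the strain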
Details: S. cerevisiae deletion strains, growth OD, locus YCL016C, strain dcc1, stronger effect = lower value
Hit rate of the full screen: of about 5,500 compounds, about 2,000 (36%) were called active. Inconclusive results (about 18%) are left out. Some of the results follow. Where a SMILES comes first, the peptide text is derived from it. Bridges are numbered along the chain shown (N, C = ends). [ ]: non-standard residue; d: D form. The star is where a group is joined. ξ: configuration not given here. ξDab(CH2SO3H) = NC(CCNCS(=O)(=O)O)C(=O)O; Heptanoyl(6-Me) = CC(C)CCCCC(=O)*; Dab = NCC[CH](N)C(=O)O
Observed Property: normalized growth
The reply should be a number, written without any unit.

Use the examples below as a reference point.
Nc1ccc(S(=O)(=O)Nc2ccnn2-c2ccccc2)cc1 = 0.999
NC12CC3CC(CC(C3)C1)C2 = 0.977
CC(C)CC(N(C)C)C1(c2ccc(Cl)cc2)CCC1 (stereo unspecified) = 0.994
Nc1c2c(nc3ccccc13)CCCC2 = 1.01
CC(C)(Sc1cc(C(C)(C)C)c(O)c(C(C)(C)C)c1)Sc1cc(C(C)(C)C)c(O)c(C(C)(C)C)c1 = 1

What measured normalized growth goes with CNCc1ccccc1 ?
1.02

What measured normalized growth goes with CCOc1ccc2nc3cc(N)ccc3c(N)c2c1 ?
0.462

What measured normalized growth goes with Cc1cc(O)cc(=O)o1 ?
0.991

What measured normalized growth goes with CCOP(=S)(OCC)Oc1nc(Cl)c(Cl)cc1Cl ?
0.981

What measured normalized growth goes with CCC(C)C1NC(=O)C(CCNCS(=O)(=O)O)NC(=O)C(NC(=O)C(CCNCS(=O)(=O)O)NC(=O)C(NC(=O)C(CCNCS(=O)(=O)O)NC(=O)CCCCC(C)C)C(C)O)CCNC(=O)C(C(C)O)NC(=O)C(CCNCS(=O)(=O)O)NC(=O)C(CCNCS(=O)(=O)O)NC(=O)C(C(C)CC)NC1=O (stereo unspecified) ({Heptanoyl(6-Me)}-[ξDab(CH2SO3H)]T[ξDab(CH2SO3H)][Dab][ξDab(CH2SO3H)]II[ξDab(CH2SO3H)][ξDab(CH2SO3H)]T; lactam 4-C; configuration not given here) ?
0.994

What measured normalized growth goes with O=C1C(O)=C(O)C(=O)C(O)=C1O ?
1.02

What measured normalized growth goes with CC(=O)/C=C\[C@@H]1[C@@]2(C)CCCC(C)(C)C2CC[C@@]1(C)O (stereo partly specified) ?
0.988

What measured normalized growth goes with CNC(=O)O/N=C\C(C)(C)SC ?
1.01

What measured normalized growth goes with Cc1cc(C(C)(C)C)c(O)c(C(C)(C)C)c1 ?
0.983

What measured normalized growth goes with NC(Cc1c[nH]c2ccccc12)C(=O)O (stereo unspecified) ?
1.01

What measured normalized growth goes with Cc1cc(O)cc(C)c1Cl ?
0.892

----------
Assay: chemical genetic growth profiling, strain panel (AID 1159580);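 also: tested at 20 µM; growth read once vehicle control cultures reached saturation at 30 °C; 1 = growth at the plate median or of vehicle wells; lower values mean less growth of the strain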
Details: S. cerevisiae deletion strains, growth OD, locus YBR171W, strain sec66, stronger effect = lower value
Screen size: about 5,500 compounds; about 2,000 (36%) were called active. Roughly 18% stayed inconclusive and do not appear here. The list shows a part of the results.
Reported normalized growth is given for each of the following compounds.
The reply should be a number, written without any unit.

What measured normalized growth goes with CC(=O)NC(C(=O)O)C(C)(C)SN=O (stereo not given) ?
0.993

What measured normalized growth goes with CC(C)CC(N(C)C)C1(c2ccc(Cl)cc2)CCC1 (stereo not given) ?
1.01

What measured normalized growth goes with COc1cc(C(=O)O[C@H]2CC[C@@]3(C)[C@@H]4CC[C@H]5[C@]6(O)C[C@H](O)[C@@]7(O)[C@@H](CN8C[C@@H](C)CC[C@H]8[C@@]7(C)O)[C@]6(O)C[C@@]53O[C@]24O)cc(OC)c1OC ?
1.02

What measured normalized growth goes with C[C@@H]1CC[C@H]2[C@@H](C)C(O)O[C@@H]3O[C@@]4(C)CC[C@@H]1[C@]32OO4 (stereo not given in full) ?
0.608

What measured normalized growth goes with NNC(=O)c1ccncc1 ?
1.02
